- Run description: Cytotoxicity against human NCI-H929 cells after 72 hrs by alamar blue assay
- Format: functional, cell-based
- Measurement conditions: NCI-H929, 72 h
Metric: pIC50
The quantity pIC50 is defined as the negative base-10 logarithm of the molar concentration.

# input Look at this molecule and give its reported pIC50. `OC[C@H]1O[C@@H](n2cnc3cc(Cl)c(Cl)cc32)[C@H](O)[C@@H]1O`
# output 4.70

---

- Run description: Inhibition of CDK9/cyclin T
Metric: pIC50
Quick note: pIC50 values are minus log10 of concentrations in mol/L.

# input Could you share which pIC50 value was measured for `CC[C@H](CO)Nc1nc(NCc2ccccc2)c2ncn(C(C)C)c2n1` ?
# output 6.09

---

Here the recorded pIC50 is given for each entry.
- Tested on: U-266
- Run description: Cytotoxicity against human U266 cells after 72 hrs by alamar blue assay
- Type: functional, cell-based
- Measurement conditions: U-266, 72 h
Schema: pIC50 number; meaning minus log10 of the concentration expressed in molar units.

{"Mol": "CC[C@H](CO)Nc1nc(NCc2ccccc2)c2ncn(C(C)C)c2n1", "pIC50": 4.75}

Now examine the next entry.
# input Give the measured pIC50 of `OC[C@H]1O[C@@H](n2cnc3cc(Cl)c(Cl)cc32)[C@H](O)[C@@H]1O` .
# output 4.39
